molecular target: Tyrosine-protein kinase receptor TYRO3 (Homo sapiens); details: at 1 µM
Description: GSK_PKIS: TYRO3 mean inhibition at 1 uM [Nanosyn]
Readings of inhibition for the listed molecules
Number in %, nothing else.

1) CC1=C(C(=O)Nc2ccc3[nH]ncc3c2)C(c2ccc(F)cc2)N=C(c2ccc(C(F)(F)F)nc2)N1 (centres undefined); 3.3

Task: Can you look up the measured inhibition of `CCS(=O)(=O)c1ccc(OC)c(Nc2ncc(-c3cccc(F)c3)o2)c1` for me?
Result: 26.2

Task: Can you look up the measured inhibition of `COc1cccc(-n2ncc3c(N/N=C/c4ccc(C(=O)NCCN(C)C)cc4)ncnc32)c1` for me?
Result: 60.6

Task: Can you look up the measured inhibition of `COc1cc(Nc2ncc(-c3ccccc3)o2)cc(OC)c1` for me?
Result: 8.91

Task: Can you look up the measured inhibition of `Fc1cccc(COc2ccc(Nc3ncncc3C#Cc3ccccc3)cc2Cl)c1` for me?
Result: 9.44

Task: Can you look up the measured inhibition of `O=C(O[C@H]1CN[C@H](C#Cc2cc3ncnc(Nc4ccc5c(ccn5Cc5cc(F)ccc5F)c4)c3s2)C1)N1CCOCC1` for me?
Result: 3.08

Task: Can you look up the measured inhibition of `NS(=O)(=O)c1ccc(N/N=C2\C(=O)Nc3cccc(CCc4ccncc4)c32)cc1` for me?
Result: 2.17

Task: Can you look up the measured inhibition of `OCCCNc1nccc(-c2c(-c3ccc(F)cc3)nn3cc(C(F)(F)F)ccc23)n1` for me?
Result: 1.03

Task: Can you look up the measured inhibition of `CN(C)CCNC(=O)Nc1ccc(N(C)c2ccnc(Nc3ccc(CS(C)(=O)=O)cc3)n2)cc1` for me?
Result: 5.87

---

biological target: High affinity nerve growth factor receptor (Homo sapiens); conditions: at 1 µM
Readout label: inhibition (%)
Number in %, nothing else.

1. COC(=O)Nc1nc2cc(Oc3ccc(NC(=O)Nc4ccccc4)cc3)ccc2[nH]1; 0.28
2. O=C1Nc2ccccc2/C1=C1\CCc2cc(O)ccc21; 70.6
3. COc1ccc2ncn(-c3cc(O[C@H](C)c4ccccc4C(F)(F)F)c(C(N)=O)s3)c2c1; 2.53
4. CS(=O)(=O)Nc1ccc(-c2ccc3c(NC(=O)C4CC4)n[nH]c3c2)cc1; 3.27
5. N#Cc1cccc(Nc2ncc(-c3ccccc3)o2)c1; 12.6
6. O=C(Nc1n[nH]c2nnc(-c3cccnc3)cc12)C1CC1; -0.64
7. c1cnn2ncc(-c3ccnc(NCCCN4CCOCC4)n3)c2c1; 1.75
8. COc1ccccc1-c1cc(/C=C2\C(=O)Nc3ncc(Br)cc32)cc(Br)c1O; 61.7

Task: Param readout = inhibition; param system = High affinity nerve growth factor receptor (Homo sapiens); param query = `NC(=O)c1ccc2c(-c3ccnc(NCCCO)n3)c(-c3ccc(F)cc3)nn2c1` ; response: value
Result: 2.24

Task: Param readout = inhibition; param system = High affinity nerve growth factor receptor (Homo sapiens); param query = `Cn1c(-c2nonc2N)nc2cnccc21` ; response: value
Result: 0.76

Task: Param readout = inhibition; param system = High affinity nerve growth factor receptor (Homo sapiens); param query = `Cc1cc(O)cc(C)c1/C=C/c1cncc(C(N)=O)c1` ; response: value;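 note: each value is the mean percent inhibition of TRKA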
Result: 1.48

---

molecular target: Serine/threonine-protein kinase PAK 1 (Homo sapiens); details: at 0.1 µM;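 note: values are mean PAK1 inhibition from the GSK PKIS kinase inhibitor set screen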
Readout label: inhibition (%)
Number in %, nothing else.

Before answering, review these 5 worked examples.
1. FC(F)(F)CNc1nccc(-c2cnn3ncccc23)n1; 0.97
2. NS(=O)(=O)c1ccc(N/N=C2\C(=O)Nc3cccc(CCc4ccncc4)c32)cc1; 1.58
3. COc1cccc(-n2ncc3c(N/N=C/c4ccc(C(=O)NCCN(C)C)cc4)ncnc32)c1; 7.17
4. CS(=O)(=O)Nc1ccc(-c2ccc3c(NC(=O)C4CC4)n[nH]c3c2)cc1; 3.5
5. O=C(Nc1n[nH]c2nnc(-c3cccnc3)cc12)C1CC1; -0.56

Task: Can you look up the measured inhibition of `COc1cc(N2CCN(C(C)C)CC2)ccc1Nc1nc(Nc2cccc(F)c2C(=O)O)c2cc[nH]c2n1` for me?
Result: 6.19

Task: Can you look up the measured inhibition of `c1ccc(-c2n[nH]cc2-c2ccnc(-c3ccc(OCCn4ccnc4)cc3)c2)nc1` for me?
Result: 1.76

Task: Can you look up the measured inhibition of `CS(=O)(=O)CCNCc1ccc(-c2ccc3ncnc(Nc4ccc(OCc5cccc(C(F)(F)F)c5)cc4)c3c2)o1` for me?
Result: 8.38

Task: Can you look up the measured inhibition of `CS(=O)(=O)Nc1ccc(-c2cc(-c3ccccc3)cc(C(N)=O)c2N)cc1` for me?
Result: 4.98

Task: Can you look up the measured inhibition of `CCN1CCC(C(=O)Nc2n[nH]c3nnc(-c4cccc(F)c4F)cc23)CC1` for me?
Result: -3.4

Task: Can you look up the measured inhibition of `COc1ccc2ncn(-c3cc(O[C@H](C)c4ccccc4C(F)(F)F)c(C(N)=O)s3)c2c1` for me?
Result: -0.34

Task: Can you look up the measured inhibition of `COC(=O)Nc1nc2ccc(Oc3ccc(NC(=O)Nc4cc(C(F)(F)F)ccc4F)cc3)cc2s1` for me?
Result: -2.89

Task: Can you look up the measured inhibition of `CN(C)CCNC(=O)Nc1ccc(N(C)c2ccnc(Nc3ccc(CS(C)(=O)=O)cc3)n2)cc1` for me?
Result: 4.61

Task: Can you look up the measured inhibition of `N#Cc1ccc2c(-c3ccnc(NC4CC4)n3)c(-c3ccc(F)cc3)nn2c1` for me?
Result: -1.35

Task: Can you look up the measured inhibition of `CCS(=O)(=O)c1ccc(OC)c(Nc2ncc(-c3cccc(C(C)=O)c3)o2)c1` for me?
Result: 8.45

Task: Can you look up the measured inhibition of `O=C1Nc2ccccc2/C1=C1\CCc2cc(O)ccc21` for me?
Result: 7.55

Task: Can you look up the measured inhibition of `CS(=O)(=O)CCNCc1ccc(-c2ccc3ncnc(Nc4ccc(OCc5ccccc5)cc4)c3c2)o1` for me?
Result: 6.85

Task: Can you look up the measured inhibition of `N#Cc1cccc(Nc2ncc(-c3ccccc3)o2)c1` for me?
Result: -2.44

Task: Can you look up the measured inhibition of `Fc1cccc(COc2ccc(Nc3ncncc3C#Cc3ccccc3)cc2Cl)c1` for me?
Result: 4.22

Task: Can you look up the measured inhibition of `Cc1cc(O)cc(C)c1/C=C/c1cncc(C(=O)OC(C)(C)C)c1` for me?
Result: 5.41

Task: Can you look up the measured inhibition of `COc1ccccc1-c1cc(/C=C2\C(=O)Nc3ncc(Br)cc32)cc(Br)c1O` for me?
Result: 6.7

Task: Can you look up the measured inhibition of `COc1cccc(Nc2nccc(-c3cnn4ncccc34)n2)c1` for me?
Result: 2.05

Task: Can you look up the measured inhibition of `CCn1c(-c2nonc2N)nc2cncc(C(=O)NCCNC)c21` for me?
Result: 6.24

---

system: Proto-oncogene tyrosine-protein kinase receptor Ret (Homo sapiens), P07949 [Y791F]; conditions: at 1 µM
Sequence (P07949 whole entry Y791F): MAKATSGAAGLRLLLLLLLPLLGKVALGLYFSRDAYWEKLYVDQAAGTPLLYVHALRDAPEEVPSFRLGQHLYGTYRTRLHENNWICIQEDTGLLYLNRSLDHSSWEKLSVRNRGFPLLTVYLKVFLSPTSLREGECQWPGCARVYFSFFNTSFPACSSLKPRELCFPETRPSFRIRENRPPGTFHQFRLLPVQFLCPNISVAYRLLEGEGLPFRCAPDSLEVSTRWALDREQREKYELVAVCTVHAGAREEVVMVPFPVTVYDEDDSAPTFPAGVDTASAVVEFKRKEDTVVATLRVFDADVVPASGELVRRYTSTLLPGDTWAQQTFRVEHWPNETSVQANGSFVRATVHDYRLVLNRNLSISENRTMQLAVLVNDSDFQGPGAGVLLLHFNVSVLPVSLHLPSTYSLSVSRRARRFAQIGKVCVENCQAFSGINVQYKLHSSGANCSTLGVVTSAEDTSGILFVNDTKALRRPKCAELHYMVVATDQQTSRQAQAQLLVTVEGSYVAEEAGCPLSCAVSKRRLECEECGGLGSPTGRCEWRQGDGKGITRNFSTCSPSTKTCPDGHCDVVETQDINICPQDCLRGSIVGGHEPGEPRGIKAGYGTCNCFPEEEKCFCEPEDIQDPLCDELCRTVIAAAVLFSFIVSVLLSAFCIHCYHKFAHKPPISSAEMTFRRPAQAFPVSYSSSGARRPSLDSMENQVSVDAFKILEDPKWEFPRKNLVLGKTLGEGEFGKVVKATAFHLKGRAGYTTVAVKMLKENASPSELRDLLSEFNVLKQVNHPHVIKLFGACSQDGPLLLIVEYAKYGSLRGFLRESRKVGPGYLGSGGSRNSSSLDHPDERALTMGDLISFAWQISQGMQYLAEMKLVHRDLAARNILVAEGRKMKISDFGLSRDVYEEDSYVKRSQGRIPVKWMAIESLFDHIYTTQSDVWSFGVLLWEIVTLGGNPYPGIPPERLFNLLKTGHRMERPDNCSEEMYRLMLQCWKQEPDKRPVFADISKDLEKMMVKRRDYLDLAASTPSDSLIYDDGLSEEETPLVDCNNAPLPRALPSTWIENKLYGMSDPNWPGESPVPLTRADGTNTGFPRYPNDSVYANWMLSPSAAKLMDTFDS
Readings of inhibition for the listed compounds
Number in %, nothing else.

Task: Can you look up the measured inhibition of `O=C(Nc1n[nH]c2nnc(-c3cccnc3)cc12)C1CC1` for me?
Result: 3.64

Task: Can you look up the measured inhibition of `O=C1Nc2ccccc2/C1=C1\CCc2cc(O)ccc21` for me?
Result: 64.6

Task: Can you look up the measured inhibition of `N#Cc1cccc(Nc2ncc(-c3ccccc3)o2)c1` for me?
Result: 10.8

Task: Can you look up the measured inhibition of `N#Cc1ccc2c(-c3ccnc(NC4CC4)n3)c(-c3ccc(F)cc3)nn2c1` for me?
Result: 10.8

Task: Can you look up the measured inhibition of `O=C(O[C@H]1CN[C@H](C#Cc2cc3ncnc(Nc4ccc5c(cnn5Cc5ccccc5)c4)c3s2)C1)N1CCOCC1` for me?
Result: 8.34

---

biological target: Testis-specific serine/threonine-protein kinase 2 (Homo sapiens); conditions: at 0.1 µM;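 note: values are mean inhibition of TSSK2 activity from the GSK PKIS profiling panel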
Readings of inhibition for the listed compounds
Number in %, nothing else.

Before answering, review these 3 worked examples.
1. O=C(O[C@H]1CN[C@H](C#Cc2cc3ncnc(Nc4ccc5c(ccn5Cc5cc(F)ccc5F)c4)c3s2)C1)N1CCOCC1; 2.52
2. COC(=O)Nc1nc2cc(Oc3ccc(NC(=O)Nc4ccccc4)cc3)ccc2[nH]1; 2.21
3. Cc1ccc(-c2cc3c(NC(=O)C4CC4)ncnc3o2)cc1; 1.75

Task: Can you look up the measured inhibition of `Cn1c(-c2nonc2N)nc2cnccc21` for me?
Result: 2.01

Task: Can you look up the measured inhibition of `CN(c1ccc(NC(=O)NCCN2CCOCC2)cc1)c1ccnc(Nc2ccc(CS(C)(=O)=O)cc2)n1` for me?
Result: 4.78

Task: Can you look up the measured inhibition of `COc1ccc2ncn(-c3cc(O[C@H](C)c4ccccc4C(F)(F)F)c(C(N)=O)s3)c2c1` for me?
Result: -0.29
